Provenance of the data: patent US20060045953A1

Each entry below carries its reported EC50.
- targetUnderTest: hT1R2/hT1R3 sweet receptor (Homo sapiens, UniProt Q7RTX0+Q8TE23)
- Construct: expressed in transfected cells; host or cells: HEK293 derivative stably expressing Gα15, clone S-9
- Sequence (Q8TE23 20-839): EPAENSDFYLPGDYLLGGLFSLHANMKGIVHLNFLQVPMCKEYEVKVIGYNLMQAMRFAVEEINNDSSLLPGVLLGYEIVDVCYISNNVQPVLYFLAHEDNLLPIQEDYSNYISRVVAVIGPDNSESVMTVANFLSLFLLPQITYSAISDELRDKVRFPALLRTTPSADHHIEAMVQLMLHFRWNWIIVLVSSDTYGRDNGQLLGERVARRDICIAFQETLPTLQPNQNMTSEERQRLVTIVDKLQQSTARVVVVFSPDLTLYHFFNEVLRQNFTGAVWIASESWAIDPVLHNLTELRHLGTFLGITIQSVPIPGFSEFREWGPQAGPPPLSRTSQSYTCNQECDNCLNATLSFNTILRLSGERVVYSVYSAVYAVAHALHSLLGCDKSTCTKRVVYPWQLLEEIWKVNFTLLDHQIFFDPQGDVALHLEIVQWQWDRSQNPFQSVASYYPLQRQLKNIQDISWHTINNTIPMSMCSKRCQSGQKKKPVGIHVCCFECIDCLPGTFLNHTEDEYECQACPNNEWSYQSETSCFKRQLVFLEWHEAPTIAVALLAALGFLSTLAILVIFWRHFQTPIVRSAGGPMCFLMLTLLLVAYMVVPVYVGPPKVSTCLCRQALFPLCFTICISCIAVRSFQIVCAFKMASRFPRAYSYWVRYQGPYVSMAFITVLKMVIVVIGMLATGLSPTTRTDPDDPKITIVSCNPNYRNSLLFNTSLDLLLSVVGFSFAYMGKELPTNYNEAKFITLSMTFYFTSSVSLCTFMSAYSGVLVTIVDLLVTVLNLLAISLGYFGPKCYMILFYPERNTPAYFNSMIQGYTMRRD
- Sequence (Q7RTX0 21-852): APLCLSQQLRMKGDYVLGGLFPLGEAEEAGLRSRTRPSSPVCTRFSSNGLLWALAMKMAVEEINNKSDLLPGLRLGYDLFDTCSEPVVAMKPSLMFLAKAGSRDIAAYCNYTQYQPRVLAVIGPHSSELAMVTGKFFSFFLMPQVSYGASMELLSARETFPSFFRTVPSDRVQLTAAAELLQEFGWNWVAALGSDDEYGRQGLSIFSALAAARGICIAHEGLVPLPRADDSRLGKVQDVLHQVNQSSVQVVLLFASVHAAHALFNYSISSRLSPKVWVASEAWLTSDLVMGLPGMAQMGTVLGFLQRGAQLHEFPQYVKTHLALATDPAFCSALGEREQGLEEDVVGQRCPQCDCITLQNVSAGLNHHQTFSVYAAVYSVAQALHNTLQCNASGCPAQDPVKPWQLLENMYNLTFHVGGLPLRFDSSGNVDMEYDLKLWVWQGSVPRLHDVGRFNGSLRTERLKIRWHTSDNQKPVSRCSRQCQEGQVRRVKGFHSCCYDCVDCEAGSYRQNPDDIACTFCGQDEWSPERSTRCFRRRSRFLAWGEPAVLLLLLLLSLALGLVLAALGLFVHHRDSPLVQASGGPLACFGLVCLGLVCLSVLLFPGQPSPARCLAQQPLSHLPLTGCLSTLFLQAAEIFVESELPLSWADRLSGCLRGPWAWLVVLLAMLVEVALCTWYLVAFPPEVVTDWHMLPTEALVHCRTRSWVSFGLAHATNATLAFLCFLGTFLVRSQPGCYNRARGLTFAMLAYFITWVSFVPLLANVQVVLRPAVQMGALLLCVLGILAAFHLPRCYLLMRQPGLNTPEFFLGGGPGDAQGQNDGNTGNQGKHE
- runDescription: In vitro hT1R2/hT1R3 sweet taste receptor activation assay (FLIPR, dose response)
- Type: cell-based
- particulars: Table E, Sweet Enhancer Amides; read-out: Sweet EC50
- Protocol: Activity was determined using an automated fluorometric imaging assay on a FLIPR instrument (Fluorometric Intensity Plate Reader, Molecular Devices, Sunnyvale, Calif.) (designated FLIPR assay). […] S-9 cells were grown for 24 hours at 37° C. S-9 cells were then loaded with the calcium dye Fluo-3AM (Molecular Probes, Eugene, Oreg.), 4 µM in a phosphate buffered saline (D-PBS) (Invitrogen, Carlsbad, Calif.), for 1 hour at room temperature. […]
observationType: EC50 (µM)

compound	reportedValue
CC1CCCCC1NC(=O)c1ccc2nonc2c1 (stereo not drawn)	3.33
Cc1nocc1C(=O)NC1CCC(C)c2ccccc21 (stereo not drawn)	2.46
CCc1cccc(NC(=O)c2c(C)cccc2OC)c1	4.63
